As shown below, each of these binders has a reported VQIINK Inhibition IC50 value.
- system-name: T1, Ac-VQIINK-NH2 (SEQ ID NO: 23)
- T1 sequence (peptide, N-terminal acetyl (Ac); C-terminal amide (NH2)): RLKIRW
- assay-info: cell-based or functional assay
Square brackets hold non-standard residues; d marks the D form. Ends that are not written are not given here. dCha = N[C@H](CC1CCCCC1)C(=O)O; dNle = CCCC[C@@H](N)C(=O)O
The reply should be a number in µm, with the unit left off.

Query string: Check the records and state VQIINK Inhibition IC50 for [dL][dK][dI][dR][dNle][dH][dY] [lkiruhy]
Result string: 2.07

Query string: Give the reported value of VQIINK Inhibition IC50 for this record: [dL][dK][dNle][dR][dI][dH][dY] [lkurihy]
Result string: 1.5

Query string: Identify the reported VQIINK Inhibition IC50 for the following entry. [dW][dR][dCha][dK][dV][dR][dW] (not fully specified; printed as wrbkvrw) [wrbkvrw]
Result string: 0.41
